test system: CAKI-1 renal; assay: NCI tumour cell line growth inhibition, 48 h; in the data active = GI50 below about 0.43 µM; inactive = the rest
# output must be one of active, inactive

COc1ccc(-c2csc3c2-n2cccc2C3=O)cc1O : active

For this compound, state the assay outcome: CC1(C)Cc2c(Br)c(Br)c(Br)c(OCC(O)CN3CCOCC3)c2O1 (stereo unspecified) inactive

Call for entry `CN1C(=O)C(c2c[nH]c3ccccc23)=C(c2c(-c3c[nH]c4ccccc34)[nH]c3ccccc23)C1=O` : inactive

Give the logged outcome of this assay for the following compound: O=C1OCC2=C1C(c1cccc(C(F)(F)F)c1)c1cc3c(cc1N2CCO)CCC3 (stereo unspecified) active

What call does the record list for `COc1ccc2c(c1)C(=O)c1c-2n(CCCN2CCOCC2)c(=O)c2cc([N+](=O)[O-])ccc12` ? active

For this compound, state the assay outcome: `Oc1ccc(CN(Cc2ccc(C(F)(F)F)cc2)Cc2ccc(O)c3ncccc23)c2cccnc12` active

====

system: HCT-116 colon; experiment: NCI tumour cell line growth inhibition, 48 h
Measured Property: TGI (µM)
// units = µM; emit number, no label

COc1cc2c(cc1OC)-c1c(c3ccc([N+](=O)[O-])cc3c(=O)n1CCCN)C2=O : 1.46
Cc1ccc(C[P+](c2ccccc2)(c2ccccc2)c2ccccc2)cc1 : 5.21
CC1(C)Cc2c(Br)c(Br)c(Br)c(OCC(O)CN3CCOCC3)c2O1 (stereo not drawn) : 45.2
COc1ccc(C2=CN3CCC[C@H]3C=C2c2cc(O)c(OC)c(OC)c2)cc1OC : 0.0108

Name the recorded TGI for CN(C)CCOC1(CC2CCCCC2)CCC(C(C)(C)C)CC1 (stereo not drawn) . 14.7

====

The following molecules are listed with their measured GI50 values.
tested on: UO-31 renal; test: NCI tumour cell line growth inhibition, 48 h

N=C(N)c1ccc(-c2ccc(-c3ccc(F)cc3)o2)o1 : 1430 nM
C=C(C)[C@@H]1CC[C@]2(C(=O)NCCNCCNCCN)CC[C@]3(C)[C@H](CC[C@@H]4[C@@]5(C)CCC(=O)C(C)(C)[C@@H]5CC[C@]43C)[C@@H]12 : 6850 nM
CC(C)CCC[C@@H](C)[C@H]1CCC2C3=CCC4C(=O)C=CC(=O)C4C3CC[C@@]21C (stereo not given in full) : 72.1 nM
O=C(Nc1cccc(-n2ccc3c(NC(=O)c4ccccc4)nccc32)c1)c1cc(N2CCOCC2)cc(C(F)(F)F)c1 : 754 nM

Attention now shifts to the item below.
Query for UO-31 renal: what GI50 does the record show for `CCN1CCC(CC(=O)Nc2n[nH]c3nc(-c4cccs4)c(Br)cc23)CC1` ? 9050 nM

====

Below, each entry is listed alongside its reported TGI.
test system: TK-10 renal; assay: NCI tumour cell line growth inhibition, 48 h

Examples with their reported TGI follow.
CC1CC2(CCC1OCc1ccccc1)OCCO2 (stereo not drawn) : > 100 µM
COc1ccccc1NC(=O)CC(=O)NNCC(=O)Nc1nnc(-c2ccccc2)o1 : > 100 µM

Consider the additional compound presented here.
Which value of TGI has been reported for `Cn1ccc(C(=O)NCCCCCNC(=O)c2ccn(C)c(=O)c2O)c(O)c1=O` in the records? > 100 µM

====

Entries and their measured TGI follow.
tested on: DU-145 prostate; experiment: NCI tumour cell line growth inhibition, 48 h

Record excerpt, results attached:
O=[N+]([O-])c1ccc(Cl)cc1C=NC12CC3CC(CC(C3)C1)C2 : > 100 µM
COc1cc2ncn(-c3cc(OCc4ccccc4S(C)(=O)=O)c(C#N)s3)c2cc1OC : > 25 µM

// switching to the query molecule
Data request, read-out TGI, for `COc1ccc(C2=C(c3cc(OC)c(OC)c(OC)c3)C(=O)OC2)cc1OC` > 100 µM
